# measurement-target: α5β2 GABAA receptors (Rattus norvegicus, UniProt P19969+P63138)
# Sequence (P19969 26-464): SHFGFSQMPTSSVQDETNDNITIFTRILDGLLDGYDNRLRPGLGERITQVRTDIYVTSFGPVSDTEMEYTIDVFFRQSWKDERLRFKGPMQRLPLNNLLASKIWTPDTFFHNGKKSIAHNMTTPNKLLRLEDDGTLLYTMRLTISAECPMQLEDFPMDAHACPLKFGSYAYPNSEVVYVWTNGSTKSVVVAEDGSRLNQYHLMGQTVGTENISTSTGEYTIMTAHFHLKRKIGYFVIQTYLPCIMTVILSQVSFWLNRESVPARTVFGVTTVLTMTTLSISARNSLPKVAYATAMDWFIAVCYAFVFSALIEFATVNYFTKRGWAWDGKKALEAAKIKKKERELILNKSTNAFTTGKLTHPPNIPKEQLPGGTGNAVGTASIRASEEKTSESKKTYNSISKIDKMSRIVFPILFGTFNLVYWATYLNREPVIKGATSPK
# Sequence (P63138 25-474 limits assumed): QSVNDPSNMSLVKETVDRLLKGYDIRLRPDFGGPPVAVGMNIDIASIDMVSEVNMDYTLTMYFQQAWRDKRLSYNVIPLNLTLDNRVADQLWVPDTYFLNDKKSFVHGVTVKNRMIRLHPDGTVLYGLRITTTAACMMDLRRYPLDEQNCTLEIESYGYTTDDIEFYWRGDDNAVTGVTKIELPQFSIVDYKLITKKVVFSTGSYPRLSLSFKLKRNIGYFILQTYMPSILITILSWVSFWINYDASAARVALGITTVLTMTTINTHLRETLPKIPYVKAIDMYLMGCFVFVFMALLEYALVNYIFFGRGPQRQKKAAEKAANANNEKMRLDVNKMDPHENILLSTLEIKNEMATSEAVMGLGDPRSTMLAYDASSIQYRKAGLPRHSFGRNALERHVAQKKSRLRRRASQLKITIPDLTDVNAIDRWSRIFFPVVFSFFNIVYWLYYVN
# protocol-notes: IGABA modulation, two-microelectrode voltage clamp, Xenopus oocytes, α5β2
assay-metric: EC50 (µM)

compound | assay-metric | unit-annotation | reported-value
O=C(/C=C/C=C/c1ccc2c(c1)OCO2)N1CCCCC1 [Piperine, 1-piperoylpiperidine] | EC50 | µM | 47.5

---

# measurement-target: α2β2 GABAA receptors (Rattus norvegicus, UniProt P23576+P63138)
# Sequence (P23576 29-451): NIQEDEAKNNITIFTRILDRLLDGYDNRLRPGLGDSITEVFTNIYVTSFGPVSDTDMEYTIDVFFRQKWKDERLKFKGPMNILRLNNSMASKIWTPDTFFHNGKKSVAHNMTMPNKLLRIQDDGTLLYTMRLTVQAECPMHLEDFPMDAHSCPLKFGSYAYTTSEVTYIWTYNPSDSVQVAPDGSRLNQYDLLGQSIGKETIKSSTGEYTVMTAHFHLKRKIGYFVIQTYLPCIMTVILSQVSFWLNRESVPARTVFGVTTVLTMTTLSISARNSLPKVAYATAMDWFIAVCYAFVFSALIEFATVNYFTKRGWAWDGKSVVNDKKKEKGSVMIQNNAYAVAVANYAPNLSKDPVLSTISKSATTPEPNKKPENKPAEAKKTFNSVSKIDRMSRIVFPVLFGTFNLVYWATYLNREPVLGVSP
# Sequence (P63138 25-474 limits assumed): as the sequence (P63138 25-474 limits assumed) above
# protocol-notes: IGABA modulation, two-microelectrode voltage clamp, Xenopus oocytes, α2β2
assay-metric: EC50 (µM)

smiles-input | reported-value
O=C(/C=C/C=C/c1ccc2c(c1)OCO2)N1CCCCC1 | 42.8

---

# measurement-target: α1β2 GABAA receptors (Rattus norvegicus, UniProt P62813+P63138)
# Sequence (P62813 28-455): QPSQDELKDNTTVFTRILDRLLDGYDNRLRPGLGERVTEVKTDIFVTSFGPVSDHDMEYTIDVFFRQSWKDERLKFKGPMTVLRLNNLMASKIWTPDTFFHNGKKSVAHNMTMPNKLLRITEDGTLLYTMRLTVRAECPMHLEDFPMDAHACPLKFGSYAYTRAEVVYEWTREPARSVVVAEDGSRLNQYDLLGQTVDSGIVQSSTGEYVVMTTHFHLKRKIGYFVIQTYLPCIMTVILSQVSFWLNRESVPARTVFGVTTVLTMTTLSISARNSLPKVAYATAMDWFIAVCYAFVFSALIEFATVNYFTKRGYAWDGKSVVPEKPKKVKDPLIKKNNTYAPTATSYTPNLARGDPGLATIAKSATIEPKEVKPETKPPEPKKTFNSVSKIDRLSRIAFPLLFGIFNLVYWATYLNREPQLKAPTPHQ
# Sequence (P63138 25-474 limits assumed): as the sequence (P63138 25-474 limits assumed) above
# protocol-notes: IGABA modulation, two-microelectrode voltage clamp, Xenopus oocytes, α1β2

compound | unit-annotation | EC50
O=C(/C=C/C=C/c1ccc2c(c1)OCO2)N1CCCCC1 [Piperine, 1-piperoylpiperidine] | µM | 50

---

# measurement-target: UniProt:O35433
# Sequence (O35433 whole entry): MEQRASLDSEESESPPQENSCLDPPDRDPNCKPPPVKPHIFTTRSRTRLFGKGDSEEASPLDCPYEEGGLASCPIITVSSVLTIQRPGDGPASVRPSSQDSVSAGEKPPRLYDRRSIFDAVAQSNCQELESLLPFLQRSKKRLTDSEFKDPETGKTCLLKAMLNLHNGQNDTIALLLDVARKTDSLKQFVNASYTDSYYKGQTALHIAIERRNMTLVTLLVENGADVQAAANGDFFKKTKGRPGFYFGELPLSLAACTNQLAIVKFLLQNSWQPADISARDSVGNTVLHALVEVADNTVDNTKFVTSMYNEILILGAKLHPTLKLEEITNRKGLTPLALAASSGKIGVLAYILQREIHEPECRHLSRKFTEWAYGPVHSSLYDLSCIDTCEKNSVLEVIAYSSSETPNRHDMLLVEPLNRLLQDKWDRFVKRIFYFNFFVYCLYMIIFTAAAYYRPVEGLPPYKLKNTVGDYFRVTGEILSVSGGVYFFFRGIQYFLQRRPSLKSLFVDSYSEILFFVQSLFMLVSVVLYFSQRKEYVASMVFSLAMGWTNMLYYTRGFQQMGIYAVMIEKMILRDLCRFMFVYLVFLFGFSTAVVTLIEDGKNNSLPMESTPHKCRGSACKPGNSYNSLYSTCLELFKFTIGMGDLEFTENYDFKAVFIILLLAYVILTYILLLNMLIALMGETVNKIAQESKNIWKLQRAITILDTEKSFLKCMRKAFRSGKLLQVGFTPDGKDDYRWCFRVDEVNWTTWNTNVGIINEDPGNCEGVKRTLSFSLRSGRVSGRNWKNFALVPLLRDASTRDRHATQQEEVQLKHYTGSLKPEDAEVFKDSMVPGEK
# protocol-notes: TRPV1 activation, two-microelectrode voltage clamp, Xenopus oocytes
assay-metric: EC50 (µM)

smiles-input | reported-value
O=C(/C=C/C=C/c1ccc2c(c1)OCO2)N1CCCCC1 | 33.3

---

# measurement-target: α1β1 GABAA receptors (Rattus norvegicus, UniProt P15431+P62813)
# Sequence (P62813 28-455): as the sequence (P62813 28-455) above
# Sequence (P15431 26-474): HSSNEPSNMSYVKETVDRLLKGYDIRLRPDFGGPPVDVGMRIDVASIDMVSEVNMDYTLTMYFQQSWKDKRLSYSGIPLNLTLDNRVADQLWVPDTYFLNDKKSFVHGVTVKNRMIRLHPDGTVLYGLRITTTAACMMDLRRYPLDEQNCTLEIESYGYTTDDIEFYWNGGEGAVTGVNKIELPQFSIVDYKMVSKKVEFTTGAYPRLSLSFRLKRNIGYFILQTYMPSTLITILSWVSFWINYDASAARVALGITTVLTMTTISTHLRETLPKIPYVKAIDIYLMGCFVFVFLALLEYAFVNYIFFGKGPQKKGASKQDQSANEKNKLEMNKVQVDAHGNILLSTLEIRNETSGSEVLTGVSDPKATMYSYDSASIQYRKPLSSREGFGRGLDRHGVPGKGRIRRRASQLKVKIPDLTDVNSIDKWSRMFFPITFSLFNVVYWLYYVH
# protocol-notes: IGABA modulation, two-microelectrode voltage clamp, Xenopus oocytes, α1β1
pEC50: −log10 of the molar value.

smiles-input | pEC50
O=C(/C=C/C=C/c1ccc2c(c1)OCO2)N1CCCCC1 | 4.24

---

# measurement-target: α3β2 GABAA receptors (Rattus norvegicus, UniProt P20236+P63138)
# Sequence (P20236 29-493): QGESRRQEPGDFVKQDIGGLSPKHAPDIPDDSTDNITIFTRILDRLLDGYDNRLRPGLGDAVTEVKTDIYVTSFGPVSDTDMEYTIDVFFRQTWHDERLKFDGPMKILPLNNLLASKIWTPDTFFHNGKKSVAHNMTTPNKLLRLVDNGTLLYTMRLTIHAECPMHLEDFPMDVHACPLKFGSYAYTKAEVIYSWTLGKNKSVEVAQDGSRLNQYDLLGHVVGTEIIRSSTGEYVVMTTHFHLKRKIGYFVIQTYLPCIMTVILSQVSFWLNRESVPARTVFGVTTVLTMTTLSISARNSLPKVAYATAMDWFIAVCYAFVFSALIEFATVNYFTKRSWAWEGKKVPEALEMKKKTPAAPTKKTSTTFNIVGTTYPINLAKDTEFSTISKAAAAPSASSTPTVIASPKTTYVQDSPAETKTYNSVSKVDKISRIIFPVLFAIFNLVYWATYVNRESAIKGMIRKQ
# Sequence (P63138 25-474 limits assumed): as the sequence (P63138 25-474 limits assumed) above
# protocol-notes: IGABA modulation, two-microelectrode voltage clamp, Xenopus oocytes, α3β2
pEC50: −log10 of the molar value.

smiles-input | measurement-target | pEC50
O=C(/C=C/C=C/c1ccc2c(c1)OCO2)N1CCCCC1 | α3β2 GABAA receptors (Rattus norvegicus, UniProt P20236+P63138) | 4.22
